Biological target: ENaC (Homo sapiens, UniProt P37088+P51168+P51170, A314G)
Construct: expressed in transfected cells
Test: membrane potential assay with stable ENaC cell line (CHO)
Assay type: cell-based
Settings: FIG. 4; read-out: EC50
pEC50: −log10 of the molar value.

>  <compound>
[Cl-].[Na+] [NaCl, sodium chloride]

>  <pEC50>
1.32

$$$$

====

Each entry below lists one item and its recorded EC50 value.
Molecular target: ENaC (Homo sapiens, UniProt P37088+P51168+P51170, A314G)
Construct: expressed in transfected cells
Sequence (P37088 1-669): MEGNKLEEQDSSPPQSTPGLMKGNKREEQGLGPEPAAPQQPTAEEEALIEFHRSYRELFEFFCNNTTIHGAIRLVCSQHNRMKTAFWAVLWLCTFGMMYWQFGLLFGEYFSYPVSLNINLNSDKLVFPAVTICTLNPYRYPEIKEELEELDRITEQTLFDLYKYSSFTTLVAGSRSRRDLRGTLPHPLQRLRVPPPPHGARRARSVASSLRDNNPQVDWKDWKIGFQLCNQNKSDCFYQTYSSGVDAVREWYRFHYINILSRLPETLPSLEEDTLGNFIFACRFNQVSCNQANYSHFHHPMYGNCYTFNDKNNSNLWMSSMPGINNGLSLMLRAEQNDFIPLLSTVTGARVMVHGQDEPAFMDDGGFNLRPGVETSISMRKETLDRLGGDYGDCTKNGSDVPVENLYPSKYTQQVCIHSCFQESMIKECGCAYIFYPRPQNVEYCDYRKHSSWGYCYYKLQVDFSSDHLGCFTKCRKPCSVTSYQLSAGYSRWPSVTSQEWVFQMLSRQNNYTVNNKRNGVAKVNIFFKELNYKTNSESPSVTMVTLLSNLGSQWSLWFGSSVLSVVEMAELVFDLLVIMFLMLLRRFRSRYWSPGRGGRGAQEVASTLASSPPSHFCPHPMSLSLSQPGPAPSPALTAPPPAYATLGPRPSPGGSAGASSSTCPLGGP
Sequence (P51168 1-640 A314G): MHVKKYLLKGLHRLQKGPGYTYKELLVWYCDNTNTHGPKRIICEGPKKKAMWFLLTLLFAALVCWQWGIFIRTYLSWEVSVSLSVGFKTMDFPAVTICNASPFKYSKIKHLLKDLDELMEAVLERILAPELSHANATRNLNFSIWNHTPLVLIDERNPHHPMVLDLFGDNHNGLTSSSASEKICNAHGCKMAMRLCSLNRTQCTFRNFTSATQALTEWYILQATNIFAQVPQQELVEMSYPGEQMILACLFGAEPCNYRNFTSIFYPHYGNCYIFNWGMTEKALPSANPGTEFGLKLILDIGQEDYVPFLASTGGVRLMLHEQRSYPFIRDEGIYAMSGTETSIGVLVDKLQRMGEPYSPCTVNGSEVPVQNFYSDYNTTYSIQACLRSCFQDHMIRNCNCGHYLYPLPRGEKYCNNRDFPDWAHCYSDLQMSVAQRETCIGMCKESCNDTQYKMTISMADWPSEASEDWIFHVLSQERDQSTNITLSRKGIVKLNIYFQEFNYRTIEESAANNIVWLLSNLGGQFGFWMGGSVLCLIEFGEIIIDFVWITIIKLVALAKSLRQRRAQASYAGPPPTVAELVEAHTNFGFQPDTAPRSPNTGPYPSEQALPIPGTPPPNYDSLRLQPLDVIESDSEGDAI
Sequence (P51170 1-649): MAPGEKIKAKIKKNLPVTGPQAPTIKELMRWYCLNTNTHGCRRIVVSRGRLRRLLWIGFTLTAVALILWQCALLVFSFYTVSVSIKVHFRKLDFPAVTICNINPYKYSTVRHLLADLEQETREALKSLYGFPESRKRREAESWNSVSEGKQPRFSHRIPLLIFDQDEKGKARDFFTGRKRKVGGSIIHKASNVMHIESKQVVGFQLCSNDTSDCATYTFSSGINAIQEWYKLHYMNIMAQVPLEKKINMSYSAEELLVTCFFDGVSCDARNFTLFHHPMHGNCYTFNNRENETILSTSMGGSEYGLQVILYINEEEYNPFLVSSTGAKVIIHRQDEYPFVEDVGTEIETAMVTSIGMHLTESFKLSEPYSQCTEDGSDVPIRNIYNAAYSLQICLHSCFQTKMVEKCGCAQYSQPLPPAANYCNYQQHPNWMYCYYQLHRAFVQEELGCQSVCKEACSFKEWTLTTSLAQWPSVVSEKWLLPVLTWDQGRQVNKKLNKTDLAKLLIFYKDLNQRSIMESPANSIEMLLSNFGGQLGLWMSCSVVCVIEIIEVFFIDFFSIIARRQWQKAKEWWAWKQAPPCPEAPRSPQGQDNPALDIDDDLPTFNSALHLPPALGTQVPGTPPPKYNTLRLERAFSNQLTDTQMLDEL
Experiment: membrane potential assay with stable ENaC cell line (CHO)
Assay type: cell-based
Details: a cell line of the invention, general statement; read-out: EC50

>  <compound>
[Cl-].[Na+] [NaCl, sodium chloride]

>  <tgt>
ENaC (Homo sapiens, UniProt P37088+P51168+P51170, A314G)

>  <EC50>
~50 mM

$$$$
>  <compound>
[Cl-].[Li+] [LiCl, lithium chloride]

>  <tgt>
ENaC (Homo sapiens, UniProt P37088+P51168+P51170, A314G)

>  <EC50>
~35 mM

$$$$
